All values here come from paper PMC12416549.

# tested-on: T1, TNFR1 (Homo sapiens, UniProt P19438)
# T1 chain: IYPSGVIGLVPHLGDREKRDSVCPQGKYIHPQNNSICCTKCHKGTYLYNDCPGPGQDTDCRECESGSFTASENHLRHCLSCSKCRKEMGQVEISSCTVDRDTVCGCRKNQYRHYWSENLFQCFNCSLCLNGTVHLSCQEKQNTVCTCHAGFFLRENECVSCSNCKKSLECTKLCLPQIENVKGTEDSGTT
# experiment-summary: yeast display SC50
The reader will find reported apparent Kd (screen) values listed item by item below.
All answers are understood in nM, so give the number only.

These recorded examples may help you get a feel for the data.
{"binder": "A88Q (designed binder) MTLQELLREEALRRAEAEAFRYALELLAEKFPEQKEYLLDLAEEIESQIRSLSGVDVEDVRKFLDKEWAWVKELLAEHPAELAEVEAQRAARLAELRAEVEAKVAA", "observed": 0.49}
{"binder": "A15T (designed binder) MTLQELLREEALRRTEAEAFRYALELLAEKFPEQKEYLLDLAEEIESQIRSLSGVDVEDVRKFLDKEWAWVKELLAEHPAELAEVEAARAARLAELRAEVEAKVAA", "observed": 0.49}

Please find the next binder below.
Entry V100W (designed binder) MTLQELLREEALRRAEAEAFRYALELLAEKFPEQKEYLLDLAEEIESQIRSLSGVDVEDVRKFLDKEWAWVKELLAEHPAELAEVEAARAARLAELRAEWEAKVAA — recorded apparent Kd (screen) = 0.539
